- Test system: TNFα
- experimental.protocol: IRAK4 Monocyte TNFα Cell Based Assay
- Design: species or system human
- conditions: Homo sapiens, Monocyte, human monocytes, LPS stimulated; compounds 1-32; read-out: EC50 TNF
readout.type: EC50 (nM)

1) CC(=O)N[C@H]1CCN(C(=O)c2nnc(-c3cnc(-c4ccc5cc(C#N)cnn45)cc3NC(C)C)s2)C1 : 9
2) CC(C)Nc1cc(-c2ccc3cc(C#N)cnn23)ncc1-c1nnc(C(=O)N2CCCC2)s1 : 2130
3) CC(C)Nc1cc(-c2ccc3cc(C#N)cnn23)ncc1-c1nnc(N2CCCC2)s1 : 4180
4) CC(=O)N[C@H]1CC[C@H](c2nnc(-c3cnc(-c4ccc5cc(C#N)cnn45)cc3NC(C)C)s2)CC1 : 14
5) CC(C)Nc1cc(-c2ccc3cc(C#N)cnn23)ncc1-c1nnc(CCC(C)(C)O)s1 : 5
6) CC(=O)N[C@H]1CC[C@H](c2nnc(-c3cnc(-c4ccc5cc(C#N)cnn45)cc3N[C@H]3CC[C@H](c4nnc(C(F)F)o4)CC3)s2)CC1 : 8
7) CC(C)Nc1cc(-c2ccc3cc(C#N)cnn23)ncc1-c1nnc(C(=O)N2CC[C@@H](O)C2)s1 : 55

Reference source: patent US11046686B2
